assayed target: Potassium/sodium hyperpolarization-activated cyclic nucleotide-gated channel 1 (Mus musculus, UniProt O88704)
Sequence (O88704 whole entry): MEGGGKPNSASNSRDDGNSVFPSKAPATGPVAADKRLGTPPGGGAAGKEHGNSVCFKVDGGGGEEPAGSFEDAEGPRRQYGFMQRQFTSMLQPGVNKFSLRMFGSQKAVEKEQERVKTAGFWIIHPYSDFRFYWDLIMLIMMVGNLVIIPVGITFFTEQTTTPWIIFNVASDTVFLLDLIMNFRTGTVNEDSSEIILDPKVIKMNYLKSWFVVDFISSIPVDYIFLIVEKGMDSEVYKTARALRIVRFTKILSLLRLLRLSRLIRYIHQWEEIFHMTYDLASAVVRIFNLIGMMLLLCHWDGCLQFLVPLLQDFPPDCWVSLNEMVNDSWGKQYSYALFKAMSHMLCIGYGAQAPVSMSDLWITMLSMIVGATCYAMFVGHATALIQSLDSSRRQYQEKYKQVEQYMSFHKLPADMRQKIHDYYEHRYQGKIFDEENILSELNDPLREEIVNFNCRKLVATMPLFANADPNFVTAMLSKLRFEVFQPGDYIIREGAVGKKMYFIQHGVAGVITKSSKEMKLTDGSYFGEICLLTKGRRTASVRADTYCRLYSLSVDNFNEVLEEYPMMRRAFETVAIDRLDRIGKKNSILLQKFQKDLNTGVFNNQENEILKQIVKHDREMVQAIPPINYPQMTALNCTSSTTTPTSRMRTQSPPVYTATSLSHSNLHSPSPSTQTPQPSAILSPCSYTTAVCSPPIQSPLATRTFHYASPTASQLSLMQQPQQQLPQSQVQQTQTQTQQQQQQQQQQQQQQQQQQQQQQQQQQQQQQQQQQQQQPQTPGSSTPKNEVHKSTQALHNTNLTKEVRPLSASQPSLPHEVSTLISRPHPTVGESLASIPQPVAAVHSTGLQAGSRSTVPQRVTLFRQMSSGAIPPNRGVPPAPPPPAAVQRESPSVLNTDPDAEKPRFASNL
procedure text: Blockade of mouse HCN1 expressed in HEK293 cells at -120 f-current amplitude by patch-clamp electrophysiological assay
# thresholds on EC50 define classes: low-valued (below 4 µM), mid-valued (4 µM to below 20 µM), high-valued (20 µM or more)

[[record]]
compound = "COc1cc2c(cc1OC)CC(=O)N(CCCN(C)C[C@H]1Cc3cc(OC)c(OC)cc31)CC2 [IVABRADINE]"
assigned_label = "mid-valued"


For `COc1ccc([C@H](C)CN(C/C=C\CN2C=Cc3cc(OC)c(OC)cc3CC2=O)C/C=C\CN2C=Cc3cc(OC)c(OC)cc3CC2=O)cc1OC` , which EC50 bin applies?
mid-valued

Band for the recorded EC50 of `COc1ccc([C@@H](C)CN(C/C=C\CN2C=Cc3cc(OC)c(OC)cc3CC2=O)C/C=C\CN2C=Cc3cc(OC)c(OC)cc3CC2=O)cc1OC` ?
low-valued

Hi there! Could you help me figure out the category for `COc1ccc([C@@H](C)CN(C)C/C=C\CN2C=Cc3cc(OC)c(OC)cc3CC2=O)cc1OC` please?
mid-valued

Sort COc1ccc(CCN(C)CCCN2CCc3cc(OC)c(OC)cc3CC2=O)cc1OC [ZATEBRADINE] into one of the categories.
mid-valued

Place this compound in its band: `COc1ccc(CCN(C)C/C=C\CN2C=Cc3cc(OC)c(OC)cc3CC2=O)cc1OC`
mid-valued

Which class does `COc1ccc(CCN(C/C=C\CN2C=Cc3cc(OC)c(OC)cc3CC2=O)C/C=C\CN2C=Cc3cc(OC)c(OC)cc3CC2=O)cc1OC` fall in?
high-valued

Which class does `COc1ccc(CCN(C)C/C=C/CN2C=Cc3cc(OC)c(OC)cc3CC2=O)cc1OC` fall in?
low-valued

Could you tell me which band `COc1ccc([C@H](C)CN(C)C/C=C\CN2C=Cc3cc(OC)c(OC)cc3CC2=O)cc1OC` belongs to?
high-valued

====

assayed target: Potassium/sodium hyperpolarization-activated cyclic nucleotide-gated channel 4 (Homo sapiens)
procedure text: Blockade of human HCN4 expressed in HEK293 cells at 5 uM at -120 f-current amplitude by patch-clamp electrophysiological assay relative to control
Type: cell-based
property name: residual activity (%)
Output spec: scalar in %, unitless text.

[[record]]
input_smiles = "COc1ccc([C@H](C)CN(C/C=C\\CN2C=Cc3cc(OC)c(OC)cc3CC2=O)C/C=C\\CN2C=Cc3cc(OC)c(OC)cc3CC2=O)cc1OC"
property_name = "residual activity"
result_value = 92

[[record]]
input_smiles = "COc1ccc([C@@H](C)CN(C)C/C=C/CN2C=Cc3cc(OC)c(OC)cc3CC2=O)cc1OC"
property_name = "residual activity"
result_value = 72

[[record]]
input_smiles = "COc1ccc(CCN(C)C/C=C/CN2C=Cc3cc(OC)c(OC)cc3CC2=O)cc1OC"
property_name = "residual activity"
result_value = 53

[[record]]
input_smiles = "COc1ccc([C@H](C)CN(C)C/C=C\\CN2C=Cc3cc(OC)c(OC)cc3CC2=O)cc1OC"
property_name = "residual activity"
result_value = 91


Continue with the next compound.
Briefly, residual activity measured for `COc1ccc([C@@H](C)CN(C)C/C=C\CN2C=Cc3cc(OC)c(OC)cc3CC2=O)cc1OC` : 83

====

Each entry below lists one item and its recorded residual activity value.
assayed target: Potassium/sodium hyperpolarization-activated cyclic nucleotide-gated channel 4 (Homo sapiens)
procedure text: Blockade of human HCN4 expressed in HEK293 cells at 5 uM at -120 f-current amplitude by patch-clamp electrophysiological assay relative to control
Format: cell-based
Give the number; % is assumed, so skip it.

// below: answered compounds
[[record]]
input_smiles = "COc1ccc(CCN(C)C/C=C\\CN2C=Cc3cc(OC)c(OC)cc3CC2=O)cc1OC"
property_name = "residual activity"
result_value = 59

[[record]]
input_smiles = "COc1ccc([C@H](C)CN(C)C/C=C/CN2C=Cc3cc(OC)c(OC)cc3CC2=O)cc1OC"
property_name = "residual activity"
result_value = 71

[[record]]
input_smiles = "COc1ccc([C@H](C)CN(C/C=C/CN2C=Cc3cc(OC)c(OC)cc3CC2=O)C/C=C/CN2C=Cc3cc(OC)c(OC)cc3CC2=O)cc1OC"
property_name = "residual activity"
result_value = 83


So, `COc1ccc([C@@H](C)CN(C/C=C\CN2C=Cc3cc(OC)c(OC)cc3CC2=O)C/C=C\CN2C=Cc3cc(OC)c(OC)cc3CC2=O)cc1OC` ? Its residual activity was 93

Given item `COc1ccc([C@@H](C)CN(C/C=C/CN2C=Cc3cc(OC)c(OC)cc3CC2=O)C/C=C/CN2C=Cc3cc(OC)c(OC)cc3CC2=O)cc1OC` , the value recorded as its residual activity is 73

Sure, the documented residual activity for `COc1ccc(CCN(C/C=C\CN2C=Cc3cc(OC)c(OC)cc3CC2=O)C/C=C\CN2C=Cc3cc(OC)c(OC)cc3CC2=O)cc1OC` is 75

So, `COc1cc2c(cc1OC)CC(=O)N(CCCN(C)C[C@H]1Cc3cc(OC)c(OC)cc31)CC2` ? Its residual activity was 49

====

assayed target: Potassium/sodium hyperpolarization-activated cyclic nucleotide-gated channel 4 (Homo sapiens, UniProt Q9Y3Q4)
Sequence (Q9Y3Q4 whole entry): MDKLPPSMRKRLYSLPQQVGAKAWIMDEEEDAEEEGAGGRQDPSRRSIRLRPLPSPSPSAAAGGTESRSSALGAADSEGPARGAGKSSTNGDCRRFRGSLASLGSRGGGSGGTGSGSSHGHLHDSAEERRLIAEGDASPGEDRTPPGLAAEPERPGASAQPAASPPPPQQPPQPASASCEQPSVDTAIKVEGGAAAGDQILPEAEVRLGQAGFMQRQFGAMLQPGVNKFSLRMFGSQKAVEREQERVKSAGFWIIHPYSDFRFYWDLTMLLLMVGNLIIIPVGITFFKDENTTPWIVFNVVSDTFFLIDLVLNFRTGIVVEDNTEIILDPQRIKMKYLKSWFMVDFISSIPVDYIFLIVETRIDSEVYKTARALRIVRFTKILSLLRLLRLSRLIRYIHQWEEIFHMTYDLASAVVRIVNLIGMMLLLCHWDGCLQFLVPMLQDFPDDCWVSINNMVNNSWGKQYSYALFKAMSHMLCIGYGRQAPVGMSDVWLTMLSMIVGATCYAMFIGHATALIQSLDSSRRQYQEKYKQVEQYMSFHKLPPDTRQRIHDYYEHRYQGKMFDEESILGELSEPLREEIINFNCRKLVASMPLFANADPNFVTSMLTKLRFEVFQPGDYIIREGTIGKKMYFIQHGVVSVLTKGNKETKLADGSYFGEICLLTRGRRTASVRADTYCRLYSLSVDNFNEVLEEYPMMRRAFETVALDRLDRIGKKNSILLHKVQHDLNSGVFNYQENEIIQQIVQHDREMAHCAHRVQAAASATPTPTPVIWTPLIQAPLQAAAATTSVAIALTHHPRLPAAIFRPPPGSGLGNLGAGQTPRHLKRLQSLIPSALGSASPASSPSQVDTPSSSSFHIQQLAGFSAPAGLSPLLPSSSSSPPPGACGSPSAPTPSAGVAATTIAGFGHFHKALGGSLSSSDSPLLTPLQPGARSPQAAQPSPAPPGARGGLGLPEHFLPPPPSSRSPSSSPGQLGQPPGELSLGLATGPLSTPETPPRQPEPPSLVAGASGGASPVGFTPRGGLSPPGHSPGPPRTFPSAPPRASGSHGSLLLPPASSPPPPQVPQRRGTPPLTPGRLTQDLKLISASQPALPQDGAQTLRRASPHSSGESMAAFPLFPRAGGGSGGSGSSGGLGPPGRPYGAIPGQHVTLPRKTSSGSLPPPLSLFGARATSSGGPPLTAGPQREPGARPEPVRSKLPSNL
procedure text: Blockade of human HCN4 expressed in HEK293 cells at -120 f-current amplitude by patch-clamp electrophysiological assay
property name: EC50 (µM)
Write the value in µM as a bare number.

Solved entries:
[[record]]
input_smiles = "COc1ccc(CCN(C)C/C=C/CN2C=Cc3cc(OC)c(OC)cc3CC2=O)cc1OC"
result_value = 7.23

[[record]]
input_smiles = "COc1ccc(CCN(C/C=C\\CN2C=Cc3cc(OC)c(OC)cc3CC2=O)C/C=C\\CN2C=Cc3cc(OC)c(OC)cc3CC2=O)cc1OC"
result_value = 70.7

[[record]]
input_smiles = "COc1ccc([C@@H](C)CN(C)C/C=C\\CN2C=Cc3cc(OC)c(OC)cc3CC2=O)cc1OC"
result_value = 24.9

[[record]]
input_smiles = "COc1ccc(CCN(C)CCCN2CCc3cc(OC)c(OC)cc3CC2=O)cc1OC"
result_value = 8.57

[[record]]
input_smiles = "COc1ccc([C@H](C)CN(C/C=C\\CN2C=Cc3cc(OC)c(OC)cc3CC2=O)C/C=C\\CN2C=Cc3cc(OC)c(OC)cc3CC2=O)cc1OC"
result_value = 136


Lab note: measured EC50 of `COc1ccc(CCN(C)C/C=C\CN2C=Cc3cc(OC)c(OC)cc3CC2=O)cc1OC` was 7.14

Item: `COc1ccc([C@H](C)CN(C)C/C=C\CN2C=Cc3cc(OC)c(OC)cc3CC2=O)cc1OC` | EC50: 31.6

The molecule identified as `COc1cc2c(cc1OC)CC(=O)N(CCCN(C)C[C@H]1Cc3cc(OC)c(OC)cc31)CC2` registered its EC50 at 4.28

The molecule listed as `COc1ccc([C@@H](C)CN(C/C=C\CN2C=Cc3cc(OC)c(OC)cc3CC2=O)C/C=C\CN2C=Cc3cc(OC)c(OC)cc3CC2=O)cc1OC` has a reported EC50 of 104

====

assayed target: Potassium/sodium hyperpolarization-activated cyclic nucleotide-gated channel 1 (Mus musculus) (UniProt O88704)
procedure text: Blockade of mouse HCN1 expressed in HEK293 cells at 5 uM at -120 f-current amplitude by patch-clamp electrophysiological assay relative to control
Type: cell-based
Note to self: class labels come from recorded residual activity, ranges listed here: class 1: < 50%; class 2: ≥ 50% and < 80%; class 3: ≥ 80%

Look over these answered cases.
[[record]]
input_smiles = "COc1ccc(CCN(C)C/C=C\\CN2C=Cc3cc(OC)c(OC)cc3CC2=O)cc1OC"
assigned_label = "class 2"

[[record]]
input_smiles = "COc1ccc([C@@H](C)CN(C)C/C=C\\CN2C=Cc3cc(OC)c(OC)cc3CC2=O)cc1OC"
assigned_label = "class 2"

[[record]]
input_smiles = "COc1ccc([C@H](C)CN(C/C=C\\CN2C=Cc3cc(OC)c(OC)cc3CC2=O)C/C=C\\CN2C=Cc3cc(OC)c(OC)cc3CC2=O)cc1OC"
assigned_label = "class 2"

[[record]]
input_smiles = "COc1ccc([C@@H](C)CN(C/C=C\\CN2C=Cc3cc(OC)c(OC)cc3CC2=O)C/C=C\\CN2C=Cc3cc(OC)c(OC)cc3CC2=O)cc1OC"
assigned_label = "class 1"

[[record]]
input_smiles = "COc1ccc([C@@H](C)CN(C/C=C/CN2C=Cc3cc(OC)c(OC)cc3CC2=O)C/C=C/CN2C=Cc3cc(OC)c(OC)cc3CC2=O)cc1OC"
assigned_label = "class 2"

[[record]]
input_smiles = "COc1ccc([C@H](C)CN(C)C/C=C/CN2C=Cc3cc(OC)c(OC)cc3CC2=O)cc1OC"
assigned_label = "class 3"

[[record]]
input_smiles = "COc1ccc([C@@H](C)CN(C)C/C=C/CN2C=Cc3cc(OC)c(OC)cc3CC2=O)cc1OC"
assigned_label = "class 3"

[[record]]
input_smiles = "COc1cc2c(cc1OC)CC(=O)N(CCCN(C)C[C@H]1Cc3cc(OC)c(OC)cc31)CC2"
assigned_label = "class 1"

[[record]]
input_smiles = "COc1ccc(CCN(C)C/C=C/CN2C=Cc3cc(OC)c(OC)cc3CC2=O)cc1OC"
assigned_label = "class 1"

[[record]]
input_smiles = "COc1ccc([C@H](C)CN(C)C/C=C\\CN2C=Cc3cc(OC)c(OC)cc3CC2=O)cc1OC"
assigned_label = "class 2"


Now consider a different molecule.
Each molecule maps to one class by residual activity. Which class for `COc1ccc([C@H](C)CN(C/C=C/CN2C=Cc3cc(OC)c(OC)cc3CC2=O)C/C=C/CN2C=Cc3cc(OC)c(OC)cc3CC2=O)cc1OC` ?
class 3
